- system name: T1, CD27 expressed on the cell surface (HT1080_CD27 cells) (human, UniProt P26842 20-260); further: test concentration or dose not given here
- T1 sequence (looked up): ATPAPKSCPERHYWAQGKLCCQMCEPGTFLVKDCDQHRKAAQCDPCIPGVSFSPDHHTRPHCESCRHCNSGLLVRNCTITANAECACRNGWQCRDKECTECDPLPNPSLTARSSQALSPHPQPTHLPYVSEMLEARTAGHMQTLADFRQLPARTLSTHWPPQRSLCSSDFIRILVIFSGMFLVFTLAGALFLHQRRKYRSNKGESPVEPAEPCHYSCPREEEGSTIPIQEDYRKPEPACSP
- experiment: cell-based or functional assay
observable: IL-8 [abs. corr.] (abs. corr.)
Dear colleague, please return just the value in abs. corr., with no unit written.

Ask | Data request, read-out IL-8 [abs. corr.], for P018.S.02.A.G04 (antibody, V domains shown, V regions on human Ig constant parts; also called AB27_39) VH: QSLEESGGRLVTPGGSLTLTCTVSGIDLSSYAMGWVRQAPGKGLEYIGIIYTSNRTHYATWAKGRFTISKSSTTVDLKATSLTTEDTATYFCGRYGRGSGGYYYGMDLWGPGTLVTVSS VL: DIVMTQTPASVEAAVGGTVTIKCQASQSGDNYCSWYQQKPGQPPKLLIYQASKLTSGVPSRFRGSRSGTEYTLTISDLESADAATYYCQNYCAGSGVCLGIAFGGGTEVVVK
Reply | 0.205

Ask | Data request, read-out IL-8 [abs. corr.], for P018.S.09.A.E03 (antibody, V domains shown, V regions on human Ig constant parts; also called AB27_154) VH: QSVEESGGRLVTPGTPLTLTCTASGFSLSSYYMGWVRQAPGKGLEWIGFITSGGSGSTYYASWAKGRFTISKTSTTVDLKMTSLTTEDTATYFCARYGDSFYWALDLWGQGTLVTVSS VL: AQVLTQTPSSVSAAVGGTVTINCQSSQSVLNNDLSWYQQKPGQPPKLLIYAASTLASGVPSRFKGSGSGTQFTLTINVGQSDDAATYYCQGYFIDVNNPFGGGTEVVVK
Reply | 0.099

Ask | Data request, read-out IL-8 [abs. corr.], for P018.S.08.A.D01 (antibody, V domains shown, V regions on human Ig constant parts; also called AB27_137) VH: QSVEESGGRLVMPGTPLTLTCTVSGFSLSTYVMGWVRQAPGKGLECIGVIYGGGTIWYASWAKGRFTISKTSTTMDLQITSPTTEDTATYFCARDGSSSGDPGFNLWGQGTLVTVSS VL: DIVMTQTPASVSAAVGGTVTINCQASQSISNWVAWYQQKPGQPPKRLIYKASTLASGVPSRFKGSGSGTEFTLTISDLESADAATYYCQSTGSTAYGRAFGGGTEVVVR
Reply | -0.001
